System: OVCAR-4 ovarian
experiment-notes: NCI-60 one-dose screen, 48 h (100 = growth as untreated, 0 = no growth, -100 = all killed)
measurement-conditions: 10 µM unless noted
Compounds without any hit were thinned out: in the full panel of roughly 83,000, 20% have a hit.
# growth listing for each entry below
Provide the reading as a plain figure in %.

Solved cases (2 shown):
{"compound": "C#C[C@]1(O)CC[C@H]2[C@@H]3CC=C4c5sc(Nc6cc(Cl)ccn6)nc5CC[C@]4(C)[C@H]3CC[C@@]21C", "growth (%)": 68.1}
{"compound": "CN1CCN(Cc2ccc(NC(=O)c3cncc(C#Cc4cnc5ccc(NC6CCOCC6)nn45)c3)cc2C(F)(F)F)CC1", "growth (%)": -29.1}

Asked: Look up growth for this compound: COc1ccc(-c2nnc(SCc3ccc(O)c4ncccc34)o2)cc1
Given back: 24.5

Asked: Look up growth for this compound: C=C(C)[C@@H]1CC[C@]2(C(=O)ON)CC[C@]3(C)[C@H](CC[C@@H]4[C@@]5(C)C/C(=C/c6ccc(Br)cc6)C(=O)C(C)(C)[C@@H]5CC[C@]43C)[C@@H]12
Given back: 75.5

Asked: Look up growth for this compound: O=S(=O)(Nc1cc(Cl)cc(Cl)c1)c1ccc(-c2cnc(C3CC3)o2)cc1
Given back: 63.6

Asked: Look up growth for this compound: Clc1ccccc1/C=C/c1nn2c(-c3ccncc3)nnc2s1
Given back: 103

Asked: Look up growth for this compound: NS(=O)(=O)c1ccc(Nc2nc(N/N=C/c3ccc(C(F)(F)F)cc3)nc(Nc3ccccc3)n2)cc1
Given back: 40.9

Asked: Look up growth for this compound: COc1ccc(C(=O)n2cc(C=O)c3ccccc32)cc1
Given back: 111
